Taken from patent US5840684A.

- Tested on: Staphylococcus aureus 447
- protocol text: broth micro-dilution MIC
- Assay type: cell-based
observation type: MIC (µg/mL)
One number for each entry, in µg/mL.

>  <compound>
CNC(CC(C)C)C(=O)NC1C(=O)NC(CC(N)=O)C(=O)NC2C(=O)NC3C(=O)NC(C(=O)NC(C(=O)O)c4cc(O)cc(O)c4-c4cc3ccc4O)C(OC3CC(C)(N)C(O)C(C)O3)c3ccc(c(Cl)c3)Oc3cc2cc(c3OC2OC(CO)C(O)C(O)C2OC2CC(C)(NCc3cccc(OC4CCCCC4)c3)C(O)C(C)O2)Oc2ccc(cc2Cl)C1O (stereo not drawn)

>  <units text>
µg/mL

>  <MIC>
0.5

$$$$
>  <compound>
CNC(CC(C)C)C(=O)NC1C(=O)NC(CC(N)=O)C(=O)NC2C(=O)NC3C(=O)NC(C(=O)NC(C(=O)O)c4cc(O)cc(O)c4-c4cc3ccc4O)C(OC3CC(C)(N)C(O)C(C)O3)c3ccc(c(Cl)c3)Oc3cc2cc(c3OC2OC(CO)C(O)C(O)C2OC2CC(C)(NCc3ccc(OC(=O)c4ccccc4)cc3)C(O)C(C)O2)Oc2ccc(cc2Cl)C1O (stereo not drawn)

>  <units text>
µg/mL

>  <MIC>
0.5

$$$$
>  <compound>
CNC(CC(C)C)C(=O)NC1C(=O)NC(CC(N)=O)C(=O)NC2C(=O)NC3C(=O)NC(C(=O)NC(C(=O)O)c4cc(O)cc(O)c4-c4cc3ccc4O)C(OC3CC(C)(N)C(O)C(C)O3)c3ccc(c(Cl)c3)Oc3cc2cc(c3OC2OC(CO)C(O)C(O)C2OC2CC(C)(NCc3cccc(OC(=O)C4CCCCC4)c3)C(O)C(C)O2)Oc2ccc(cc2Cl)C1O (stereo not drawn)

>  <units text>
µg/mL

>  <MIC>
0.5

$$$$
>  <compound>
CNC(CC(C)C)C(=O)NC1C(=O)NC(CC(N)=O)C(=O)NC2C(=O)NC3C(=O)NC(C(=O)NC(C(=O)O)c4cc(O)cc(O)c4-c4cc3ccc4O)C(OC3CC(C)(N)C(O)C(C)O3)c3ccc(c(Cl)c3)Oc3cc2cc(c3OC2OC(CO)C(O)C(O)C2OC2CC(C)(NCC3CCC(C4CCCCC4)CC3)C(O)C(C)O2)Oc2ccc(cc2Cl)C1O (stereo not drawn)

>  <units text>
µg/mL

>  <MIC>
2

$$$$
>  <compound>
CNC(CC(C)C)C(=O)NC1C(=O)NC(CC(N)=O)C(=O)NC2C(=O)NC3C(=O)NC(C(=O)NC(C(=O)O)c4cc(O)cc(O)c4-c4cc3ccc4O)C(OC3CC(C)(N)C(O)C(C)O3)c3ccc(c(Cl)c3)Oc3cc2cc(c3OC2OC(CO)C(O)C(O)C2OC2CC(C)(NCc3cc(OCc4ccccc4)ccc3OC)C(O)C(C)O2)Oc2ccc(cc2Cl)C1O (stereo not drawn)

>  <units text>
µg/mL

>  <MIC>
0.5

$$$$
>  <compound>
CNC(CC(C)C)C(=O)NC1C(=O)NC(CC(N)=O)C(=O)NC2C(=O)NC3C(=O)NC(C(=O)NC(C(=O)O)c4cc(O)cc(O)c4-c4cc3ccc4O)C(OC3CC(C)(N)C(O)C(C)O3)c3ccc(c(Cl)c3)Oc3cc2cc(c3OC2OC(CO)C(O)C(O)C2OC2CC(C)(NCc3cccnc3)C(O)C(C)O2)Oc2ccc(cc2Cl)C1O (stereo not drawn)

>  <units text>
µg/mL

>  <MIC>
1

$$$$
>  <compound>
CNC(CC(C)C)C(=O)NC1C(=O)NC(CC(N)=O)C(=O)NC2C(=O)NC3C(=O)NC(C(=O)NC(C(=O)O)c4cc(O)cc(O)c4-c4cc3ccc4O)C(OC3CC(C)(N)C(O)C(C)O3)c3ccc(c(Cl)c3)Oc3cc2cc(c3OC2OC(CO)C(O)C(O)C2OC2CC(C)(NCc3ccc(Cl)c(C(=O)c4ccccc4)c3Cl)C(O)C(C)O2)Oc2ccc(cc2Cl)C1O (stereo not drawn)

>  <units text>
µg/mL

>  <MIC>
1

$$$$
>  <compound>
CNC(CC(C)C)C(=O)NC1C(=O)NC(CC(N)=O)C(=O)NC2C(=O)NC3C(=O)NC(C(=O)NC(C(=O)O)c4cc(O)cc(O)c4-c4cc3ccc4O)C(OC3CC(C)(N)C(O)C(C)O3)c3ccc(c(Cl)c3)Oc3cc2cc(c3OC2OC(CO)C(O)C(O)C2OC2CC(C)(NCC3CCC(COCc4ccccc4)CC3)C(O)C(C)O2)Oc2ccc(cc2Cl)C1O (stereo not drawn)

>  <units text>
µg/mL

>  <MIC>
0.5

$$$$
>  <compound>
CNC(CC(C)C)C(=O)NC1C(=O)NC(CC(N)=O)C(=O)NC2C(=O)NC3C(=O)NC(C(=O)NC(C(=O)O)c4cc(O)cc(O)c4-c4cc3ccc4O)C(OC3CC(C)(N)C(O)C(C)O3)c3ccc(c(Cl)c3)Oc3cc2cc(c3OC2OC(CO)C(O)C(O)C2OC2CC(C)(NCc3ccc4cc(C)ccc4c3)C(O)C(C)O2)Oc2ccc(cc2Cl)C1O (stereo not drawn)

>  <units text>
µg/mL

>  <MIC>
0.5

$$$$
>  <compound>
CNC(CC(C)C)C(=O)NC1C(=O)NC(CC(N)=O)C(=O)NC2C(=O)NC3C(=O)NC(C(=O)NC(C(=O)O)c4cc(O)cc(O)c4-c4cc3ccc4O)C(OC3CC(C)(N)C(O)C(C)O3)c3ccc(c(Cl)c3)Oc3cc2cc(c3OC2OC(CO)C(O)C(O)C2OC2CC(C)(NCc3ccc(OS(=O)(=O)c4c(C)c(C)c(C)c(C)c4C)cc3)C(O)C(C)O2)Oc2ccc(cc2Cl)C1O (stereo not drawn)

>  <units text>
µg/mL

>  <MIC>
4

$$$$

Input CNC(CC(C)C)C(=O)NC1C(=O)NC(CC(N)=O)C(=O)NC2C(=O)NC3C(=O)NC(C(=O)NC(C(=O)O)c4cc(O)cc(O)c4-c4cc3ccc4O)C(OC3CC(C)(N)C(O)C(C)O3)c3ccc(c(Cl)c3)Oc3cc2cc(c3OC2OC(CO)C(O)C(O)C2OC2CC(C)(NCc3ccc4c(c3)CCO4)C(O)C(C)O2)Oc2ccc(cc2Cl)C1O (stereo not drawn) . Output MIC: 4

###

Exercise: state measured MIC for each of the compounds provided.
- Tested on: Staphylococcus aureus 447
- protocol text: broth micro-dilution MIC
- Type: cell-based
Answers are plain numbers, in µg/mL.

>  <compound>
CNC(CC(C)C)C(=O)NC1C(=O)NC(CC(N)=O)C(=O)NC2C(=O)NC3C(=O)NC(C(=O)NC(C(=O)O)c4cc(O)cc(O)c4-c4cc3ccc4O)C(OC3CC(C)(N)C(O)C(C)O3)c3ccc(c(Cl)c3)Oc3cc2cc(c3OC2OC(CO)C(O)C(O)C2OC2CC(C)(NCc3ccc4ccc5cccc6ccc3c4c56)C(O)C(C)O2)Oc2ccc(cc2Cl)C1O (centres unmarked)

>  <observation type>
MIC

>  <units text>
µg/mL

>  <recorded number>
4

$$$$

Return reported MIC values for all items listed beneath this line.
1. CNC(CC(C)C)C(=O)NC1C(=O)NC(CC(N)=O)C(=O)NC2C(=O)NC3C(=O)NC(C(=O)NC(C(=O)O)c4cc(O)cc(O)c4-c4cc3ccc4O)C(OC3CC(C)(NCc4ccc(-c5ccccc5)cc4)C(O)C(C)O3)c3ccc(c(Cl)c3)Oc3cc2cc(c3OC2OC(CO)C(O)C(O)C2OC2CC(C)(NCc3ccc(-c4ccccc4)cc3)C(O)C(C)O2)Oc2ccc(cc2Cl)C1O (centres unmarked)
2. CC(C)CC(C(=O)NC1C(=O)NC(CC(N)=O)C(=O)NC2C(=O)NC3C(=O)NC(C(=O)NC(C(=O)O)c4cc(O)cc(O)c4-c4cc3ccc4O)C(OC3CC(C)(N)C(O)C(C)O3)c3ccc(c(Cl)c3)Oc3cc2cc(c3OC2OC(CO)C(O)C(O)C2OC2CC(C)(NCc3ccc4c(c3)CCCC4)C(O)C(C)O2)Oc2ccc(cc2Cl)C1O)N(C)Cc1ccc2c(c1)CCCC2 (centres unmarked)
3. CNC(CC(C)C)C(=O)NC1C(=O)NC(CC(N)=O)C(=O)NC2C(=O)NC3C(=O)NC(C(=O)NC(C(=O)O)c4cc(O)cc(O)c4-c4cc3ccc4O)C(OC3CC(C)(N)C(O)C(C)O3)c3ccc(c(Cl)c3)Oc3cc2cc(c3OC2OC(CO)C(O)C(O)C2OC2CC(C)(NCc3ccc([S+]([O-])c4ccccc4)cc3)C(O)C(C)O2)Oc2ccc(cc2Cl)C1O (centres unmarked)
4. CNC(CC(C)C)C(=O)NC1C(=O)NC(CC(N)=O)C(=O)NC2C(=O)NC3C(=O)NC(C(=O)NC(C(=O)O)c4cc(O)cc(O)c4-c4cc3ccc4O)C(OC3CC(C)(N)C(O)C(C)O3)c3ccc(c(Cl)c3)Oc3cc2cc(c3OC2OC(CO)C(O)C(O)C2OC2CC(C)(NCCc3ccccc3OCc3ccccc3)C(O)C(C)O2)Oc2ccc(cc2Cl)C1O (centres unmarked)
5. CNC(CC(C)C)C(=O)NC1C(=O)NC(CC(N)=O)C(=O)NC2C(=O)NC3C(=O)NC(C(=O)NC(C(=O)O)c4cc(O)cc(O)c4-c4cc3ccc4O)C(OC3CC(C)(N)C(O)C(C)O3)c3ccc(c(Cl)c3)Oc3cc2cc(c3OC2OC(CO)C(O)C(O)C2OC2CC(C)(NCc3ccc(-c4ccc(Cl)cc4)cc3)C(O)C(C)O2)Oc2ccc(cc2Cl)C1O (centres unmarked) [Compound 229, 4-[4-chlorophenyl]benzyl-A82846B]

[4, 1, 4, 1, 2]

# map each compound to its MIC
1. CNC(CC(C)C)C(=O)NC1C(=O)NC(CC(N)=O)C(=O)NC2C(=O)NC3C(=O)NC(C(=O)NC(C(=O)O)c4cc(O)cc(O)c4-c4cc3ccc4O)C(OC3CC(C)(N)C(O)C(C)O3)c3ccc(c(Cl)c3)Oc3cc2cc(c3OC2OC(CO)C(O)C(O)C2OC2CC(C)(NCc3ccc(OC(C)=O)c(OC)c3)C(O)C(C)O2)Oc2ccc(cc2Cl)C1O (centres unmarked)
2. CNC(CC(C)C)C(=O)NC1C(=O)NC(CC(N)=O)C(=O)NC2C(=O)NC3C(=O)NC(C(=O)NC(C(=O)O)c4cc(O)cc(O)c4-c4cc3ccc4O)C(OC3CC(C)(N)C(O)C(C)O3)c3ccc(c(Cl)c3)Oc3cc2cc(c3OC2OC(CO)C(O)C(O)C2OC2CC(C)(NCc3cccc(OCC4CCCCC4)c3)C(O)C(C)O2)Oc2ccc(cc2Cl)C1O (centres unmarked)

[2, 1]
